pIC50: −log10 of the molar value.
The molecules below each have a reported pIC50 tested on UniProtKB P35968; the values come from various publications.

Molecule: Nc1nc(-c2ccc3[nH]ccc3c2)cc(-c2cc(-c3ccc(O)cc3)ccc2O)n1
pIC50: > 6.00

Molecule: C[C@H](Nc1cncc(-c2ccc(N3CCOCC3)nc2)n1)c1cccc(NC(=O)c2cccc(C(F)(F)F)c2)c1
pIC50: > 7.00

Molecule: N#Cc1cnc2[nH]cc(C(=O)c3c(F)ccc(NS(=O)(=O)c4ncn[nH]4)c3F)c2c1
pIC50: ≥ 5.00

Molecule: Fc1nc(NCc2cc(C(F)(F)F)cc(C(F)(F)F)c2)ccc1Cc1c[nH]c2ncncc12
pIC50: ≥ 5.00

Molecule: Cn1cc(-c2cc(Oc3cccc(NC(=O)c4ccccc4OC(F)(F)F)c3)ccn2)cn1
pIC50: < 5.00

Molecule: COc1cc2nccc(Oc3ccc(NC(=O)c4c(OC)ccn(-c5ccc(F)cc5)c4=O)cc3F)c2c2c1OCCO2
pIC50: ≥ 7.30

Molecule: C=CC(=O)Nc1cc2c(Nc3ccc(Br)cc3F)ncnc2cc1OCCNC(=O)CN1CCCCC1
pIC50: 6.07

Molecule: C=CC(=O)Nc1cc2c(Nc3ccc(F)c(F)c3F)ncnc2cc1OCC1CCN(C(C)=O)CC1
pIC50: 6.60

Molecule: COc1cc(OC)cc(N(CCCO)c2ccc3ncc(-c4ccnc(C(=O)NCCCCN)c4)nc3c2)c1
pIC50: 6.18

Molecule: CC(C)C(O)C(=O)N[C@@H]1[C@@H]2CN(c3ccc(-c4cc(-c5cnn(C)c5)cn5ncc(C#N)c45)cc3)C[C@@H]21 (stereo partly shown)
pIC50: 7.30 to 8.00

Molecule: Cn1cc(-c2cc(-c3ccc(N4CCN(Cc5cccc(S(C)(=O)=O)c5)CC4)nc3)c3c(C#N)cnn3c2)cn1
pIC50: 7.93

Molecule: COc1ccc(CN(C)C2CCCCC2N(C)c2ccc(-c3cc(-c4cnn(C)c4)cn4ncc(C#N)c34)cn2)cn1 (stereo not shown)
pIC50: 6.51

Molecule: Cc1noc(C)c1-c1cc2nccc(Nc3ccc4[nH]ccc4c3C)c2o1
pIC50: > 6.52

Molecule: C=CC(=O)Nc1cc2c(Nc3ccc(F)cc3F)ncnc2cc1OCCNC(=O)CN(C)C
pIC50: 6.16

Molecule: Cn1cc(-c2ccnc3cc(-c4cccc(N)c4)oc23)cn1
pIC50: 5.52 to 6.52

Molecule: CCCCS(=O)(=O)Nc1ccc(F)c(C(=O)c2c[nH]c3ncccc23)c1
pIC50: ≥ 5.00

Molecule: CCOc1cc2nccc(Oc3ccc(NC(=O)c4cn(C)c(=O)n(-c5ccc(F)cc5)c4=O)c(Cl)c3)c2c2c1OCCO2
pIC50: 5.30 to 6.30

Molecule: Cn1cc(-c2cc(Oc3cccc(NC(=O)c4cccc5c4OC(F)(F)O5)c3)ccn2)cn1
pIC50: < 5.00

Molecule: N#CCn1cc(-c2cc(Oc3cccc(NC(=O)Nc4ccc(Cl)c(C(F)(F)F)c4)c3)ncn2)cn1
pIC50: ≥ 5.00

Molecule: COc1cc(Nc2nc3c(NCCCN4CCN(C)CC4)nccn3n2)cc(OC)c1
pIC50: 4.30 to 5.52

Molecule: CS(=O)(=O)c1cccc(-c2cnc3[nH]cc(C(=O)c4cc(NS(=O)(=O)C5CCCCC5)ccc4F)c3c2)c1
pIC50: ≥ 5.00

Molecule: COc1cccc(C(=O)c2c[nH]c3ncc(-c4cccs4)cc23)c1F
pIC50: ≥ 5.00

Molecule: COc1cnc2[nH]cc(Cc3c(Cl)ccc(OCC(F)(F)F)c3Cl)c2c1
pIC50: ≥ 5.00

Molecule: COc1cn(-c2ccc(F)cc2C)nc1C(=O)Nc1ccc(Oc2ncnc3cc(OCCCN4CCOCC4)c4c(c23)OCCO4)c(F)c1
pIC50: 6.30 to 7.30

Molecule: COc1cc2nccc(Oc3ccc(NC(=S)NC4CC4)c(Cl)c3)c2cc1C(=O)N(C)C
pIC50: 6.00 to 6.70

Molecule: COc1cc2nccc(Oc3ccc(NC(=O)c4cnc(C)c(/C=C/C5CCCC5)c4O)cc3F)c2nc1OC
pIC50: ≥ 7.00

Molecule: COc1cc(OC)cc(N(CC2CC2)c2ccc3ncc(-c4ccc5c(ccn5C)c4)nc3c2)c1
pIC50: < 5.00

Molecule: O=C(Nc1ccc(Cl)c(C(F)(F)F)c1)Nc1cc(Oc2cc(-c3nnco3)ncn2)c(F)cc1F
pIC50: ≥ 5.00

Molecule: COCCOc1cc2ncnc(Nc3ccc(NC(=O)Nc4ccc(Oc5ccccc5)cc4)c(Cl)c3)c2c2c1OCCO2
pIC50: < 5.30

Molecule: CS(=O)(=O)c1cc(NC(=O)Nc2ccc(Oc3ccnc(NC(=O)C4CC4)c3)c(F)c2)cc(C(F)(F)F)c1
pIC50: 7.87

Molecule: CC(F)(F)c1ccc(F)c(NC(=O)Nc2ccc(Oc3cc(NC(=O)C4CC4)ncn3)cc2F)c1
pIC50: 7.96
